Tested on: EKVX
experiment: NCI tumour cell line growth inhibition, 48 h
Activity calls are given as the source filed them. Cut-off read from the data, not from the text of the source: active = GI50 up to about 1.1 µM and inactive = higher.
Please answer using one outcome listed in active, inactive

Record lookup: outcome of this test for O=C1c2ccccc2S(=O)(=O)c2c1cccc2[N+](=O)[O-] ?
inactive

---

Test system: NCI-H23
experiment: NCI tumour cell line growth inhibition, 48 h
Activity calls are given as the source filed them. No stated cut-off is given here; in the data, active = GI50 up to about 1.1 µM and inactive = higher.
Listed below: GI50 values for each entry.

Consider the worked cases shown below.
{"columns": ["compound", "tested_system", "GI50"],
 "data": [
  ["CCOC(=O)C1=C(C)NC(=O)NC1c1ccc(OC)cc1OC (stereo not given)", "NCI-H23", "> 100 µM (inactive)"],
  ["Clc1ccc(C2=Nc3ccccc3SC(c3cccs3)C2)cc1 (stereo not given)", "NCI-H23", "14.1 µM (inactive)"],
  ["CCC1(c2ccc(OC)c(OC)c2)CCN(S(=O)(=O)c2ccc(C)cc2)C1 (stereo not given)", "NCI-H23", "> 100 µM (inactive)"],
  ["CC(=O)CCCCO", "NCI-H23", "> 100 µM (inactive)"],
  ["CCCC(C)NC(=O)c1ccc(N(C)Cc2cnc3nc(N)nc(N)c3n2)cc1 (stereo not given)", "NCI-H23", "29.4 µM (inactive)"]
]}

Fill in the blank: the reported GI50 of CC(=O)Nc1ccc2c(C)c3c4ccccc4n(C)c3nc2n1 is ____.
19.3 µM (inactive)

Follow-up item: CC(C)(C)OC(=O)NCC(CNC(=O)OC(C)(C)C)c1nc(C(N)=O)cs1
> 100 µM (inactive)

Follow-up item: O=C(Nc1ccc(Cl)c(Cl)c1)C(=O)C(C1OC(=O)c2ccccc21)[N+](=O)[O-] (stereo not given)
> 100 µM (inactive)

Follow-up item: CC1=CC(=O)/C(=C/n2c(=S)[nH]c3ccccc32)C(=O)O1
> 100 µM (inactive)

Follow-up item: O=S(=O)(O)c1cc(/N=[N+](\[O-])c2ccc(/N=N/c3ccccc3)cc2S(=O)(=O)O)ccc1/C=C/c1ccc(/N=[N+](\[O-])c2ccc(/N=N/c3ccccc3)cc2S(=O)(=O)O)cc1S(=O)(=O)O
> 100 µM (inactive)

Follow-up item: O=C(/C=C/c1ccc[nH]1)c1ccccc1
> 100 µM (inactive)

Follow-up item: N=C(N)NNC(=O)CCCCCCCC(=O)NNC(=N)N
> 100 µM (inactive)

---

System: HOP-92
experiment: NCI tumour cell line growth inhibition, 48 h
The source made the active and inactive calls. No stated cut-off is given here; in the data, active = GI50 up to about 1.1 µM and inactive = higher.
Please answer using one outcome listed in active, inactive

Before answering, review these 2 worked examples.
{"columns": ["compound", "category_label"],
 "data": [
  ["CCC1c2cc3n(c(=O)c2COC1O)Cc1c-3nc2ccccc2c1Cl (stereo unspecified)", "inactive"],
  ["COC1/C=C\\OC2(C)Oc3c(C)c(O)c4c(O)c(c(CN(C)C)c(O)c4c3C2=O)NC(=O)/C(C)=C\\C=C/C(C)C(O)C(C)C(O)C(C)C(OC(C)=O)C1C (stereo unspecified)", "inactive"]
]}

Record lookup: outcome of this test for CCCN(CCC)C(=O)c1c(N2CCN(C)CC2)c2cccnc2n2c(C)cnc12 ?
inactive

Follow-up item: CC(O)C1(CNc2cc(Cl)nc(N)n2)CC(CCc2ccccc2)C1 (stereo unspecified)
inactive

Follow-up item: CCOS(C)(=O)=O
inactive

Follow-up item: CC(=O)NC(CCCN(Cc1ccccc1)C(=O)NCCCl)C(=O)NCc1ccccc1 (stereo unspecified)
inactive

---

Tested on: OVCAR-8
experiment: NCI tumour cell line growth inhibition, 48 h
The source made the active and inactive calls. No stated cut-off is given here; in the data, active = GI50 up to about 1.1 µM and inactive = higher.
Listed below: GI50 values for each entry.

{"columns": ["molecule", "GI50"],
 "data": [
  ["CCCN(CCC)C(=O)c1c(N2CCN(C)CC2)c2cccnc2n2c(C)cnc12", "> 100 µM (inactive)"],
  ["O=C1CCCCCCCCCCC1CCCCCBr (stereo not drawn)", "31.8 µM (inactive)"]
]}

Fill in the blank: the reported GI50 of C[C@H](CCc1nc(C#N)c(N)o1)[C@H]1CC[C@H]2[C@@H]3[C@@H](O)CC4C[C@@H](O)CC[C@]4(C)[C@H]3C[C@@H](O)[C@]12C (stereo partly drawn) is ____.
12.9 µM (inactive)

---

Tested on: DMS-273
experiment: NCI tumour cell line growth inhibition, 48 h
Activity calls are given as the source filed them. No stated cut-off is given here; in the data, active = GI50 up to about 1.1 µM and inactive = higher.
Please answer using one outcome listed in Yes (active), No (inactive)

{"columns": ["compound", "tested_system", "category_label"],
 "data": [
  ["Oc1cc2cc(-c3ccccc3)[nH]c2c2ccccc12", "DMS-273", "Yes"],
  ["COc1cccc(C(=O)O)c1Cc1cccc2ccccc12", "DMS-273", "No"],
  ["COC(=O)N1CCc2c(nc(N(C)CCO)[nH]c2=O)C1", "DMS-273", "No"]
]}

Record lookup: outcome of this test for N=C(N)N/N=C/c1c[nH]c2ccccc12 ?
No

Follow-up item: [O-][S+]1Nc2c(Cl)cc(Cl)c3c(Cl)cc(Cl)c(c23)N1
No

Follow-up item: O=c1[nH]c2cc(-c3ccccc3)nc-2nn1-c1c(Cl)cc(Cl)cc1Cl
No

Follow-up item: CCCCCCC(=O)C/C(CCC(=O)N(Cc1ccccc1)Cc1ccccc1)=N\Nc1ccc([N+](=O)[O-])cc1[N+](=O)[O-]
No

Follow-up item: N#CC(/C(=N/NC(=O)C(=O)NN)C(=O)NC12CC3CC(CC(C3)C1)C2)c1ccccc1 (centres undefined)
No

Follow-up item: C=C=C(C(=O)OC)[S+]([O-])c1ccccc1[N+](=O)[O-] (centres undefined)
No

Follow-up item: COc1cc2c(cc1OC)C(Cl)C(c1ccc(Br)cc1)=C2Cl (centres undefined)
No

Follow-up item: c1ccc2c(c1)CCc1c(-c3n[nH]c4c3CCc3ccccc3-4)n[nH]c1-2
No

Follow-up item: COc1cc(Cl)c2c3c(c(C(C)=O)oc13)CCC2
No

Follow-up item: CC(=O)CCCCO
No

Follow-up item: CCC1=CC2CN3Cn4c(c(COCc5c6n(c7ccccc57)CN5CC7C=C(CC)C5C6(C(=O)OC)C7)c5ccccc54)C(C(=O)OC)(C2)C13
No

---

Listed below: GI50 values for each entry.
Test system: OVCAR-3
experiment: NCI tumour cell line growth inhibition, 48 h
Active and inactive are the calls of the source. Cut-off read from the data, not from the text of the source: active = GI50 up to about 1.1 µM and inactive = higher.

{"columns": ["compound", "GI50"],
 "data": [
  ["COc1ccc(/C=c2\\sc3nnc(CCC(=O)Nc4cccc(C(F)(F)F)c4)n3c2=O)cc1", "39.8 µM (inactive)"]
]}

Fill in the blank: the reported GI50 of Brc1cccc(C2SCc3nc4ccccc4n32)c1 (configuration not stated) is ____.
15.2 µM (inactive)

Follow-up item: O=C1NC(=O)C(C(c2ccc(Cl)cc2)C2C(=O)NC(=O)NC2=O)C(=O)N1.c1ccncc1
> 100 µM (inactive)

Follow-up item: O=C1C=CC(=O)c2nc3c(cc21)CCC3
17.5 µM (inactive)

Follow-up item: CCN(CC)CCNC(=O)C1COc2ccc(-c3cc(=O)c4ccccc4o3)cc2O1 (configuration not stated)
21.2 µM (inactive)

---

Test system: HOP-62
experiment: NCI tumour cell line growth inhibition, 48 h
Activity calls are given as the source filed them. Rule as the data show it: active = GI50 up to about 1.1 µM and inactive = higher.
Please answer using one outcome listed in 1 (active), -1 (inactive)

{"columns": ["molecule", "category_label"],
 "data": [
  ["COc1cc(/C=C\\c2ccc(Br)cc2)cc(OC)c1OC", 1]
]}

Record lookup: outcome of this test for CC(=O)Nc1ccc2c(C)c3c4ccccc4n(C)c3nc2n1 ?
-1

Follow-up item: Cc1cc(C)c(C2CC(O)C(CO)O2)cc1C (stereo not drawn)
-1

Follow-up item: Cc1cc2c(SCc3ccccc3Cl)nc(N)nc2nc1C
-1

Follow-up item: Cc1ccc(/S(Cc2ccccc2)=N\S(=O)(=O)c2ccc(C)cc2)cc1 (stereo not drawn)
-1

Follow-up item: CCC1(c2ccc(OC)c(OC)c2)CCN(S(=O)(=O)c2ccc(C)cc2)C1 (stereo not drawn)
-1

Follow-up item: O=[N+]([O-])/C(C(Cl)=C(Cl)Cl)=C1\Nc2ccc([N+](=O)[O-])cc2N1
-1

Follow-up item: CN(C)CCNc1nc(-c2ccc3ccccc3c2)nc2[nH]cnc12
-1

Follow-up item: Clc1ccc(C2=Nc3ccccc3SC(c3cccs3)C2)cc1 (stereo not drawn)
-1

Follow-up item: Cc1cc(C)n(-c2nc(C)c(CCO)c(=O)[nH]2)n1
-1

Follow-up item: CC1(C)c2ccccc2N2O[C@@H]3C(=O)N(c4ccccc4)C(=O)[C@@H]3C21c1ccccc1 (stereo partly drawn)
-1

Follow-up item: O=C1C=CC(=O)c2nc3c(cc21)CCC3
-1

Follow-up item: COc1cc(CNC(=S)CCCCCCCCCCC(C)C)ccc1O
-1

Follow-up item: N#Cc1c(-c2ccco2)cc(-c2ccccc2)nc1O
-1

Follow-up item: CCNC(=S)N/N=C(\C)c1cccc(C)n1
-1

Follow-up item: O=[N+]([O-])/C(C(Cl)=C(Cl)Cl)=C(\Nc1cccc2cccnc12)SCc1ccccc1
-1

Follow-up item: COc1ccc(Nc2nc3cc(C(F)(F)F)ccc3n3cccc23)cc1OC
-1

Follow-up item: O=c1cn[nH]c(=S)n1/N=C/c1c[nH]c2ccccc12
-1

Follow-up item: CCC1=CC2CN3Cn4c(c(COCc5c6n(c7ccccc57)CN5CC7C=C(CC)C5C6(C(=O)OC)C7)c5ccccc54)C(C(=O)OC)(C2)C13
-1

Follow-up item: C[P+](c1ccccc1)(c1ccc(Cl)cc1)c1ccc(Cl)cc1
-1

Follow-up item: COc1cccc2c1C(=O)c1c(O)c3c(c(O)c1C2=O)CC(O)(C(O)CO)CC3OC1CC2C(OC3COCC(C#N)N32)C(C)O1 (stereo not drawn)
1
